Origin of the recorded values: paper PMC7413516

# Run Description: Pharmacokinetic study in mice, plasma and brain structures, LC/MS/MS
# Assay type: in vivo, Swiss albino mice
# Condition Context: Swiss albino, mouse, frontal cortex, ip, 0.625 mg/kg i.p., read-out: MRT, frontal cortex (converted)

{"columns": ["Smiles Record", "Endpoint Unit", "MRT"],
 "data": [
  ["Cn1c(=O)c2c(nc3n(CCCCN4CCN(c5ccccc5F)CC4)ccn23)n(C)c1=O", "h", 1.5]
]}

----------
# Run Description: Pharmacokinetic study in mice, plasma and brain structures, LC/MS/MS
# Format: in vivo, Swiss albino mice
# Condition Context: Swiss albino, mouse, hippocampus, ip, 1.25 mg/kg, 1.25 mg/kg i.p., 120 min, read-out: Concentration, hippocampus (individual animals)
Experimental Readout: concentration at 120 min (µg/mL)

{"columns": ["Smiles Record", "Experimental Readout", "Result Number"],
 "data": [
  ["Cn1c(=O)c2c(nc3n(CCCCN4CCN(c5cccc(C(F)(F)F)c5)CC4)ccn23)n(C)c1=O", "concentration at 120 min", 0.0602]
]}

----------
# Run Description: Pharmacokinetic study in mice, plasma and brain structures, LC/MS/MS
# Assay type: in vivo, Swiss albino mice
# Condition Context: Swiss albino, mouse, frontal cortex, ip, 0.625 mg/kg, 0.625 mg/kg i.p., 480 min, read-out: Concentration, frontal cortex (individual animals)

{"columns": ["Smiles Record", "concentration at 480 min"],
 "data": [
  ["Cn1c(=O)c2c(nc3n(CCCCN4CCN(c5ccccc5F)CC4)ccn23)n(C)c1=O", "18.6 ng/mL"]
]}

----------
# Run Description: Pharmacokinetic study in mice, plasma and brain structures, LC/MS/MS
# Format: in vivo, Swiss albino mice
# Condition Context: Swiss albino, mouse, plasma, ip, 0.625 mg/kg, 0.625 mg/kg i.p., 60 min, read-out: Concentration, plasma (Mean)

{"columns": ["Smiles Record", "concentration at 60 min / ng/mL"],
 "data": [
  ["Cn1c(=O)c2c(nc3n(CCCCN4CCN(c5ccccc5F)CC4)ccn23)n(C)c1=O", 1.78]
]}

----------
# Run Description: Pharmacokinetic study in mice, plasma and brain structures, LC/MS/MS
# Assay type: in vivo, Swiss albino mice
# Condition Context: Swiss albino, mouse, striatum, ip, 0.625 mg/kg, 0.625 mg/kg i.p., 5 min, read-out: Concentration, striatum (individual animals)

{"columns": ["Compound", "Endpoint Unit", "concentration at 5 min"],
 "data": [
  ["Cn1c(=O)c2c(nc3n(CCCCN4CCN(c5ccccc5F)CC4)ccn23)n(C)c1=O [AZ-853]", "ng/mL", 290]
]}

----------
# Run Description: Pharmacokinetic study in mice, plasma and brain structures, LC/MS/MS
# Format: in vivo, Swiss albino mice
# Condition Context: Swiss albino, mouse, plasma, ip, 1.25 mg/kg, 1.25 mg/kg i.p., 120 min, read-out: Concentration, plasma (Mean)
Experimental Readout: concentration at 120 min (ng/mL)

{"columns": ["Smiles Record", "Result Number"],
 "data": [
  ["Cn1c(=O)c2c(nc3n(CCCCN4CCN(c5cccc(C(F)(F)F)c5)CC4)ccn23)n(C)c1=O", 2.58]
]}

----------
# Run Description: Pharmacokinetic study in mice, plasma and brain structures, LC/MS/MS
# Type: in vivo, Swiss albino mice
# Condition Context: Swiss albino, mouse, plasma, ip, 1.25 mg/kg, 1.25 mg/kg i.p., read-out: tmax, plasma

{"columns": ["Compound", "Tmax"],
 "data": [
  ["Cn1c(=O)c2c(nc3n(CCCCN4CCN(c5cccc(C(F)(F)F)c5)CC4)ccn23)n(C)c1=O [AZ-861]", "≤ 5 min"]
]}

----------
# Run Description: Pharmacokinetic study in mice, plasma and brain structures, LC/MS/MS
# Type: in vivo, Swiss albino mice
# Condition Context: Swiss albino, mouse, plasma, ip, 0.625 mg/kg, 0.625 mg/kg i.p., 5 min, read-out: Concentration, plasma (Mean)
Experimental Readout: concentration at 5 min (ng/mL)

{"columns": ["Compound", "Experimental Readout", "Result Number"],
 "data": [
  ["Cn1c(=O)c2c(nc3n(CCCCN4CCN(c5ccccc5F)CC4)ccn23)n(C)c1=O [AZ-853]", "concentration at 5 min", 23.1]
]}

----------
# Run Description: Pharmacokinetic study in mice, plasma and brain structures, LC/MS/MS
# Type: in vivo, Swiss albino mice
# Condition Context: Swiss albino, mouse, hippocampus, ip, 0.625 mg/kg, 0.625 mg/kg i.p., 120 min, read-out: Concentration, hippocampus (Mean)

{"columns": ["Smiles Record", "Endpoint Unit", "concentration at 120 min"],
 "data": [
  ["Cn1c(=O)c2c(nc3n(CCCCN4CCN(c5ccccc5F)CC4)ccn23)n(C)c1=O", "ng/mL", 12.6]
]}

----------
# Run Description: Pharmacokinetic study in mice, plasma and brain structures, LC/MS/MS
# Assay type: in vivo, Swiss albino mice
# Condition Context: Swiss albino, mouse, striatum, ip, 1.25 mg/kg, 1.25 mg/kg i.p., 240 min, read-out: Concentration, striatum (individual animals)
# Protocol: Blood samples from the Swiss albino mice were collected at 0 (pre-dose), 5, 15, 30, 60, 120, 240 and 480 min after a compound administration. […] The ion source parameters were as follows: ion spray voltage: 5500 V; nebulizer gas (gas 1): 20 psi; turbo gas (gas 2): 25 psi; temperature of the heated nebulizer: 400°C; curtain gas: 40 psi; collision gas: 6 psi. […] Quantification was done via peak area ratio. […]

{"columns": ["Smiles Record", "concentration at 240 min (ng/mL)"],
 "data": [
  ["Cn1c(=O)c2c(nc3n(CCCCN4CCN(c5cccc(C(F)(F)F)c5)CC4)ccn23)n(C)c1=O", 6.95]
]}

----------
# Run Description: Pharmacokinetic study in mice, plasma and brain structures, LC/MS/MS
# Assay type: in vivo, Swiss albino mice
# Condition Context: Swiss albino, mouse, plasma, ip, 1.25 mg/kg, 1.25 mg/kg i.p., 480 min, read-out: Concentration, plasma (individual animals)
Experimental Readout: concentration at 480 min (ng/mL)

{"columns": ["Smiles Record", "Result Number"],
 "data": [
  ["Cn1c(=O)c2c(nc3n(CCCCN4CCN(c5cccc(C(F)(F)F)c5)CC4)ccn23)n(C)c1=O", 0.25]
]}
